Kindly state Ratio Ki for each of the entries shown.
assay: Selectivity ratio of Ki for NET to Ki for 5-HTT
Just the number, please, no unit after it.

Looking up COC(=O)[C@@H]1C2CCC(C[C@@H]1c1ccc(SC)cc1)N2 (stereo partly specified) , I see its Ratio Ki listed as 110

Looking up CCSc1ccc([C@H]2CC3CCC(N3)[C@H]2C(=O)OC)cc1 (stereo partly specified) , I see its Ratio Ki listed as 94

Looking up COC(=O)[C@H]1[C@@H](c2ccc([S+](C)[O-])cc2)C[C@@H]2CC[C@H]1N2C (stereo partly specified) , I see its Ratio Ki listed as 120

Looking up "COC(=O)[C@H]1[C@@H](c2ccc(SC)cc2)C[C@@H]2CC[C@H]1N2C" , I see its Ratio Ki listed as 314

Looking up COC(=O)[C@H]1[C@@H](c2ccc([S+](C)[O-])c(Br)c2)C[C@@H]2CC[C@H]1N2C (stereo partly specified) , I see its Ratio Ki listed as 216

Looking up "COC(=O)[C@H]1[C@@H](c2ccc(SC(F)(F)F)cc2)C[C@@H]2CC[C@H]1N2C" , I see its Ratio Ki listed as 238

Looking up "CCSc1ccc([C@H]2C[C@@H]3CC[C@H]([C@H]2C(=O)OC)N3C)cc1" , I see its Ratio Ki listed as 260

Looking up COC(=O)[C@@H]1C2CCC(C[C@@H]1c1ccc(SC)cc1)N2CCCF (stereo partly specified) , I see its Ratio Ki listed as 320

Looking up "COC(=O)[C@H]1[C@@H](c2ccc(SC(C)C)cc2)C[C@@H]2CC[C@H]1N2C" , I see its Ratio Ki listed as 7

Looking up "COC(=O)[C@H]1[C@@H](c2ccc(SC)c(Br)c2)C[C@@H]2CC[C@H]1N2C" , I see its Ratio Ki listed as 202

* * *

OUTCOME MEASURE: log10 of Ki (log10 of the value in nM)
The figures below represent log10 of Ki, where Ki is stated in nM.

Observed log10 of Ki on UniProt P31645, entry COC(=O)[C@@H]1C2CCC(C[C@@H]1c1ccc(SC)cc1)N2 (stereo not given in full) , equals -0.72

Observed log10 of Ki on UniProt P31645, entry COC(=O)[C@H]1[C@@H](c2ccc([S+](C)[O-])c(Br)c2)C[C@@H]2CC[C@H]1N2C (stereo not given in full) , equals 0.51

Observed log10 of Ki on UniProt P31645, entry COC(=O)[C@H]1[C@@H](c2ccc([S+](C)[O-])cc2)C[C@@H]2CC[C@H]1N2C (stereo not given in full) , equals 0.63

Observed log10 of Ki on UniProt P31645, entry "COC(=O)[C@H]1[C@@H](c2ccc(SC)cc2)C[C@@H]2CC[C@H]1N2C" , equals -0.15

Observed log10 of Ki on UniProt P31645, entry CCCN1C2CCC1[C@@H](C(=O)OC)[C@@H](c1ccc(SCC)cc1)C2 (stereo not given in full) , equals 1.69

Observed log10 of Ki on UniProt P31645, entry CCSc1ccc([C@H]2CC3CCC(N3)[C@H]2C(=O)OC)cc1 (stereo not given in full) , equals 0.10

Observed log10 of Ki on UniProt P31645, entry COC(=O)[C@@H]1C2CCC(C[C@@H]1c1ccc(SC)cc1)N2CCCF (stereo not given in full) , equals 0.48

Observed log10 of Ki on UniProt P31645, entry C=CCN1C2CCC1[C@@H](C(=O)OC)[C@@H](c1ccc(SC)cc1)C2 (stereo not given in full) , equals 0.74

Observed log10 of Ki on UniProt P31645, entry "COC(=O)[C@H]1[C@@H](c2ccc(OC)cc2)C[C@@H]2CC[C@H]1N2C" , equals 0.63

Observed log10 of Ki on UniProt P31645, entry "CCSc1ccc([C@H]2C[C@@H]3CC[C@H]([C@H]2C(=O)OC)N3C)cc1" , equals 0.65
